B1: Reg1-FLAG (wild type) [S. cerevisiae] / Snf1-GFP [S. cerevisiae] (parent complex)
chain 1: MSTNLANYFAGKKDIENEHVNRNASHESNSKSDVKISGNDNDNDEDMGPSVSMAVQAKNDDDFHKSTFNLKRTRSMGLLDEYIDPTKKLLGRSDDLYDNDNEYYDNSSNNSSSNSSDDDYDDGYQEHSTSVSPPPADNDSYLIPQDDNDVVVEPERHVDYLSHEWKESEISNSWKYIILKKKKRDVDLVNAARLENASWRTWAKARNNLKTVSPEVVNWSKDSDVTWLYGPIVRDSEGNAQSEEEHDLERGYGSDDENSKRISMPTKNSKSIAAAPKPILKKRTVTEIIEDNALWKLNEARKHMTEMKHASVIMDPNGNKNVHDDFDALAAQVNAQYYHYPKESNSSVSLKSQHSDKKDNSTIPNPVGENSNGGGDKGEEDLHLKSALHVQNNRSTAQSNKSILENSTNDRKANLDQNLNSPDNNRFPSSTSSSNRDNENNSMGLSSILTSNPSEKSNKPTKNRHIHFNDRVEQCMALRYPASQSEDDESDDENKQYVDVNNNANVTTINNNRTPLLAIQHKSIPINSATEHLNKNTSDDDTSSQSSSSSHSDDEEHGGLYINARFSRRSDSGVHSPITDNSSVASSTTSRAHVRPIIKLLPDTTLNYGSDEESDNGEFNGYGNAVSHNVNTSRGYDYIYDYNSVYTGDTSSFLPVDSCDIVDVPEGMDLQTAIADDNASNYEFNNAVESKEKHVPQLHKASANNTTRQHGSHMLLYDDDNYSSSSDSEQQFIEDSQYNSSDDEEEEDDDDQEVDDNHDEGLSLRRTLSLGKSGSTNSLYDLAQPSLSSATPQQKNPTNFTGGKTDVDKDAQLAVRPYPLKRNSSSGNFIFNSDSEEESSSEEEQRPLPANSQLVNRSVLKGSVTPANISSQKKKALPKQPKASDSSQSFRIVNNTPSPAEVGASDVAIEGYFSPRNESIKSVVSGGNMMDHQDHSEMDTLAKGFENCHINNASKLKDKKVDSVQTTRKEASLTDSSNESLHKVVQNARGMASKYLHSWKKSDVKPQENGNDSS
chain 2: MSSNNNTNTAPANANSSHHHHHHHHHHHHHGHGGSNSTLNNPKSSLADGAHIGNYQIVKTLGEGSFGKVKLAYHTTTGQKVALKIINKKVLAKSDMQGRIEREISYLRLLRHPHIIKLYDVIKSKDEIIMVIEYAGNELFDYIVQRDKMSEQEARRFFQQIISAVEYCHRHKIVHRDLKPENLLLDEHLNVKIADFGLSNIMTDGNFLKTSCGSPNYAAPEVISGKLYAGPEVDVWSCGVILYVMLCRRLPFDDESIPVLFKNISNGVYTLPKFLSPGAAGLIKRMLIVNPLNRISIHEIMQDDWFKVDLPEYLLPPDLKPHPEEENENNDSKKDGSSPDNDEIDDNLVNILSSTMGYEKDEIYESLESSEDTPAFNEIRDAYMLIKENKSLIKDMKANKSVSDELDTFLSQSPPTFQQQSKSHQKSQVDHETAKQHARRMASAITQQRTYHQSPFMDQYKEEDSTVSILPTSLPQIHRANMLAQGSPAASKISPLVTKKSKTRWHFGIRSRSYPLDVMGEIYIALKNLGAEWAKPSEEDLWTIKLRWKYDIGNKTNTNEKIPDLMKMVIQLFQIETNNYLVDFKFDGWESSYGDDTTVSNISEDEMSTFSAYPFLHLTTKLIMELAVNSQSN

Variants of: B1
Procedure Text: co-immunoprecipitation (anti-FLAG IP, immunoblot quantification); n = 3; reg1Δ Snf1-GFP Glc7-GFP cells; parent: 1; read off a plot
Measurement Type: ratio to parent

Study these solved cases before continuing.
Can you look up the measured ratio to parent of chain 1 A54T for me?
~0.84

Using the record for chain 1 P231S , report its ratio to parent.
~1.1

Find the recorded ratio to parent belonging to chain 1 P278Q and report it.
~0.95

Query (variant): chain 1 W165G ; field requested: ratio to parent
~0.8

Now turn to the next variant.
What value of measured ratio to parent is listed for chain 1 N624S ?
~0.74
